Every entry's value here was drawn from PubChem BioAssay (Tox21).

Molecular target: Thyrotropin-releasing hormone receptor (Homo sapiens) (UniProt P34981)
Sequence (P34981 whole entry, looked up): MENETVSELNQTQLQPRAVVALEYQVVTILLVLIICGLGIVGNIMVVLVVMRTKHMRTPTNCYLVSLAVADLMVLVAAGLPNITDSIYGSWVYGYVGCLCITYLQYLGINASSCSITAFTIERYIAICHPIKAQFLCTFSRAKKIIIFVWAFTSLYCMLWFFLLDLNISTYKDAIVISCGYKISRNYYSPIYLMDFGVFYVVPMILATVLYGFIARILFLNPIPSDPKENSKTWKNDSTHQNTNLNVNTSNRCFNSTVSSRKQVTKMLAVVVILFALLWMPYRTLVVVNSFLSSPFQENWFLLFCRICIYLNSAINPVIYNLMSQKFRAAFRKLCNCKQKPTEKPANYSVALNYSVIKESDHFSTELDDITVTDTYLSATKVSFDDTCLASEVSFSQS
Test: qHTS assay to identify small molecule antagonists of the thyrotropin-releasing hormone receptor (TRHR) signaling pathway (AID 1346877)
Settings: TRHR-HEK293, TRH-induced calcium fluorescence, antagonist mode; series mostly up to 51.3 µM
Calls of active or inactive are those of the source. Calls follow the shape of the dose curve; as a rule, active = well fitted inhibition curve with a large enough effect in the repeat runs (not every such curve was filed as active); inconclusive = weak or mixed curves; inactive = flat fitted curve, though single readings scatter.
observable: activity, negative = inhibition

> print(dat)
                          compound  reported.result
1  CC(Cl)C(=O)O (stereo not drawn)         inactive
2               Cc1ccc2c(C)cccc2c1         inactive
3                      CC(C)CCON=O         inactive

====

Test: qHTS assay for identifying genotoxic compounds that show differential cytotoxicity against isogenic chicken DT40 cell lines with known DNA damage response pathways - Rev3 mutant cell line (AID 743014); also: nearly all actives have a fitted effect of over 55% in size; also: potency is read from the fitted curve at half-maximal effect
Settings: chicken DT40 Rev3-/- viability, CellTiter-Glo, 40 h; series mostly up to 68.4 µM
Records with an inconclusive call do not appear. Activity calls are given as the source filed them. Calls follow the shape of the dose curve; as a rule, active = well fitted cell-killing curve with a large enough effect in the repeat runs; inconclusive = weak or mixed curves, or effect the other way; inactive = no such curve, though single readings can be large or run the other way.
observable: Potency

Worked cases, answers included:
> print(dat)
                                   molecule  reported.result
1  O=C(NCNC(=O)NC1C(=O)NC(=O)N1CO)NC1C(=O)NC(=O)N1CO (centres undefined)         inactive
2  C=CCOC(=O)C(C)(C)OC(=O)c1cc(-n2c(=O)cc(C(F)(F)F)n(C)c2=O)ccc1Cl   30 µM (active)
3                             C=CCc1ccccc1O         inactive
4  CCCN(CCC)C(=O)Cc1c(-c2ccc(Cl)cc2)nc2ccc(Cl)cn12         inactive
5  Cc1cnc(C2=NC(C)(C(C)C)C(=O)N2)c(C(=O)O)c1 (centres undefined)         inactive

Please report Potency for the following molecule: `CCc1ccccc1N`
inactive

Please report Potency for the following molecule: `O=C1NC(=O)C(=O)C(=O)N1`
inactive

Please report Potency for the following molecule: `O=C(O)C(Cl)(Cl)Br`
inactive

Please report Potency for the following molecule: `C=CC(=O)NC(C)(C)CC(C)=O`
54.5 µM (active)

====

Experiment: A CellTox Green Cytotoxicity Assay to monitor cytotoxicity in HepG2 cells - 0 hour (AID 1224882); also: nearly all actives have a fitted effect of over 35% in size
Details: CellTox Green fluorescence; series mostly up to 76.8 µM
Activity calls are given as the source filed them. Calls follow the shape of the dose curve; as a rule, active = well fitted activation curve with a large enough effect in the repeat runs; inconclusive = weak or mixed curves; inactive = flat fitted curve, though single readings scatter.
Respond only with the outcome that fits, drawn from active, inactive

> print(dat)
                                   compound  category
1    CCOC(=O)c1cn2nc(OP(=S)(OCC)OCC)cc2nc1C  inactive
2                  CCCC[N+](CCCC)(CCCC)CCCC  inactive
3                  O=C(O)CCCOc1ccc(Cl)cc1Cl  inactive
4           Cc1ncc(C[n+]2csc(CCO)c2C)c(N)n1  inactive
5  CC(Oc1cc(Cl)c(Cl)cc1Cl)C(=O)O (stereo not drawn)  inactive

Can you look up the reported call for `C[N+](C)(C)CCOC(=O)C(O)(c1ccccc1)c1ccccc1` for me?
inactive

Can you look up the reported call for `CCOP(=O)(O)C(N)=O` for me?
inactive

Can you look up the reported call for `c1ccc2c(c1)sc1ccccc12` for me?
inactive

Can you look up the reported call for `CN1CC[C@]23c4c5ccc(O)c4O[C@H]2[C@@H](O)CC[C@H]3[C@H]1C5` for me?
inactive

Can you look up the reported call for `O=C(O)C(Cl)(Cl)Br` for me?
inactive

Can you look up the reported call for `C1CS1` for me?
inactive

Can you look up the reported call for `COC(=O)C1(O)c2ccccc2-c2ccccc21` for me?
inactive

Can you look up the reported call for `CCc1ccccc1N` for me?
inactive

Can you look up the reported call for CCC1CCC(=O)O1 (stereo not drawn) for me?
inactive

Can you look up the reported call for `COc1ccc2c(c1OC)C(=O)O[C@H]2[C@@H]1c2cc3c(cc2CCN1C)OCO3` for me?
inactive

Can you look up the reported call for `SCc1ccccc1` for me?
inactive

Can you look up the reported call for `CCCCCCCCn1sccc1=O` for me?
inactive

Can you look up the reported call for `C=CCc1ccc(OC(=O)Cc2ccccc2)c(OC)c1` for me?
inactive

Can you look up the reported call for CC(C)C1(C)N=C(c2ncccc2C(=O)O)NC1=O (stereo not drawn) for me?
inactive

Can you look up the reported call for `CCNC(=O)NC(=O)/C(C#N)=N/OC` for me?
inactive

Can you look up the reported call for `O=[N+]([O-])c1cc(Cl)c(Cl)cc1Cl` for me?
inactive

Can you look up the reported call for `CNC(=O)Oc1cccc(N=CN(C)C)c1` for me?
inactive

Can you look up the reported call for `C[C@@H]1C[C@@H]([C@H](O)CC2CC(=O)NC(=O)C2)C(=O)[C@@H](C)C1` for me?
inactive
